# Tested on: BT-549 breast
# experiment description: NCI-60 one-dose screen, 48 h (100 = growth as untreated, 0 = no growth, -100 = all killed)
# assay conditions: 10 µM unless noted
The panel holds about 83,000 compounds, 20% with a hit somewhere; the sample as a whole holds those more often.
Under this convention, y denotes growth strictly below 40% and n denotes growth at or above 40%.

Observe how each entry below is paired with its result.
* CC(C)(C)c1cc(-n2c(-c3ccc(Cl)cc3)nc3cc(C(=O)Nc4ccc(Cl)cc4)ccc32)n[nH]1 | n
* CN(C)CCCCC(C(=O)CBr)(c1ccccc1)c1ccccc1 | y

query: Criterion: growth strictly below 40%. Is it met by CC(=O)O[C@H]1CC[C@@]2(C)[C@@H](CC[C@@H]3[C@@H]2CC(=O)[C@@]2(C)[C@H]3C[C@@H](C3CCCC3=O)[C@@H]2C(C)=O)C1 (stereo not given in full) ?
result: n

query: Next: NCCn1cc(-c2nc(-c3c[nH]c4ncccc34)cs2)c2ccccc21
result: n

query: Next: Cc1ccnc2c(OCc3ccccc3)cccc12
result: n

query: Next: Cn1c(/C(C#N)=C/c2ccc3ccccc3c2)cc2ccccc21
result: y

query: Next: COc1ccc(-c2nc3ccccn3c2-c2nc3ccc(Cl)cc3[nH]2)cc1
result: n

query: Next: Clc1ccccc1-c1nc(Nc2nc3ccccc3s2)nc(C(Cl)(Cl)Cl)n1
result: n

----------
# System: OVCAR-4 ovarian
# experiment description: NCI-60 one-dose screen, 48 h
# assay conditions: 10 µM unless noted
This is part of a sample that, as a whole, favours compounds with a hit. Of some 83,000 tested, about 20% had one in any assay. Activity calls are given as the source filed them. Rule for the calls: active = growth percent below 10; inactive = the rest.
Outcome field: choose from active, inactive

Observe how each entry below is paired with its result.
* c1cc(N2CCCC2)c2nc(-c3[nH]ncc3Nc3ncnc4[nH]ccc34)[nH]c2c1 | active
* CCN1CCN(C(=O)[C@]23CCC(C)(C)C[C@@H]2C2=CC[C@@H]4[C@@]5(C)C/C(=C/c6ccncc6)C(=O)C(C)(C)[C@@H]5CC[C@@]4(C)[C@]2(C)CC3)CC1 | active
* Nc1ncnc2nc(Br)[nH]c12 | inactive
* Cc1ccnc2c(OCc3ccccc3)cccc12 | inactive
* Nc1c(C(=O)Nc2c(Cl)cccc2Cl)sc2nc3c(cc12)C(=O)CCC3 | inactive
* O=C1CCC/C=C\C[C@H]2C=C(Cl)C(=O)/C2=C/C[C@H](CCCCC(F)(F)F)OC(=O)CCC/C=C\C[C@H]2C=C(Cl)C(=O)/C2=C/C[C@H](CCCCC(F)(F)F)O1 | inactive

query: Identify the outcome logged in this assay for the compound shown: C=C1C(=O)O[C@H]2[C@H]1CC/C(COC(=O)NCCc1c[nH]c3ccccc13)=C\CC[C@@]1(C)O[C@@H]21
result: inactive

query: Next: COc1ccc(-c2nc(SCC(=O)Nc3ccc(C(C)=O)cc3)[nH]c(=O)c2C#N)cc1
result: inactive

----------
Can you tell me growth for the items I'm about to list?
# Test system: NCI-H322M lung
# experiment description: NCI-60 one-dose screen, 48 h (100 = growth as untreated, 0 = no growth, -100 = all killed)
# assay conditions: 10 µM unless noted
# Experimental: Growth inhibition of the NCI-H322M human Non-Small Cell Lung tumor cell line is measured as a screen for anti-cancer activity. Cells are grown in 96 well plates and exposed to the test compound for 48 hours. Compounds are tested at a single concentration, which is 10^-5 M for most compounds. The reported endpoint is percent growth (GI% or GIPRCNT), where numbers from 0 - 100% represent growth inhibition, and numbers from -100% - 0 represent cell death. […]
This is part of a sample that, as a whole, favours compounds with a hit. Of some 83,000 tested, about 20% had one in any assay.
Numbers only, in %.

* COc1cc(/C=N/NC(=S)NNC(=S)NC2CCCCC2)cc(OC)c1OC | 93.7
* Cc1nn(-c2ccc(Cl)cc2)c(=O)n1CCn1cnc2ccccc21 | 96.8
* CCOC(=O)N1CCN(CCCCOc2ccc(C(C)(C)CC)cc2)CC1 | 113
* Cn1c(/C(C#N)=C/c2ccc3ccccc3c2)cc2ccccc21 | 48.9
* CCCC1CCCCN1C(=O)OCC(C)C (centres undefined) | 104

Batch request: growth per item, same order as input.
1. CC1(C)CC[C@]2(C(=O)Nc3ccccn3)CC[C@]3(C)C(=CC[C@@H]4[C@@]5(C)C/C(=C/c6ccncc6)C(=O)C(C)(C)[C@@H]5CC[C@]43C)[C@@H]2C1
2. Cc1ccc(C)c2c1CCC2C(C)C (centres undefined)
3. C#CCn1c2c(c3ccccc31)C[C@]1(C)[C@H]3CC[C@@H]4[C@@H]5C(=CCC[C@H]5C(=C)C)CC[C@@]4(C)[C@]3(C)CC[C@H]1C2(C)C
4. COc1cc(-c2cc(-c3nc4ccccc4[nH]3)[nH]n2)cc(OC)c1OC

result:
62.6
97.9
103
39.5

Where do these numbers come from? They come from PubChem BioAssay (NCI).
